Below, each of the molecules is paired with its reported IC50 value.
# System: Trypanosoma brucei brucei
# experimental_protocol: Antitrypanosomal activity against Trypanosoma brucei brucei after 48 hrs
# Assay type: functional, organism-based
Form entry: value (µM) — number only.

Qu. Form entry - test system: Trypanosoma brucei brucei; read-out: IC50; molecule: `CC(C)(CN1C(=O)c2cccc3cc(N)cc(c23)C1=O)C[N+](C)(C)CCCCCC[N+](C)(C)CCCN1C(=O)c2ccccc2C1=O`
Ans. 24.2

Qu. What is its IC50 for Trypanosoma brucei brucei? Entry: NCCC[C@](N)(C(=O)O)C(F)F [EFLORNITHINE]
Ans. 22.9

Qu. For the record `CC(C)(CN1C(=O)c2cccc3ccc([N+](=O)[O-])c(c23)C1=O)C[N+](C)(C)CCCCCC[N+](C)(C)CCCN1C(=O)c2ccccc2C1=O` , what value of IC50 is listed for Trypanosoma brucei brucei?
Ans. 8.78

Qu. Give recorded IC50 with Trypanosoma brucei brucei for the following molecule: `CCC[N+](C)(C)CC(C)(C)CN1C(=O)c2cccc3cccc(c23)C1=O`
Ans. 1.2

Qu. Form field - read-out: IC50; system: Trypanosoma brucei brucei; submitted item: `Cc1ccc2c(c1)C(=O)N(CCC[N+](C)(C)CCCCCC[N+](C)(C)CC(C)(C)CN1C(=O)c3cccc4cccc(c34)C1=O)C2=O`
Ans. 4.62

Qu. # get_value(readout= IC50, system= Trypanosoma brucei brucei) for `CC(C)(CN1C(=O)c2cccc3cccc(c23)C1=O)C[N+](C)(C)CCCCCCBr`
Ans. 0.69

Qu. Recorded IC50 for N=C(N)c1ccc(OCCCCCOc2ccc(C(=N)N)cc2)cc1 [PENTAMIDINE ISETHIONATE] with Trypanosoma brucei brucei, please?
Ans. 0.0027

Qu. Reported IC50 for Trypanosoma brucei brucei, given `CN(CCCCCCN(C)CCCN1C(=O)c2cccc3cccc(c23)C1=O)CCCN1C(=O)c2cccc3cccc(c23)C1=O` ?
Ans. 0.03

Qu. Form entry - test system: Trypanosoma brucei brucei; read-out: IC50; molecule: `CC(C)(CN1C(=O)c2cccc3ccc(N)c(c23)C1=O)C[N+](C)(C)CCCCCC[N+](C)(C)CCCN1C(=O)c2ccccc2C1=O`
Ans. 5.95

Qu. Under Trypanosoma brucei brucei: IC50 value of `CC(C)(CN1C(=O)c2cccc3cccc(c23)C1=O)C[N+](C)(C)CCCCCC[N+](C)(C)CCCN1C(=O)c2cccc3cccc(c23)C1=O` ?
Ans. 4.27

Qu. # returns recorded IC50 (system: Trypanosoma brucei brucei) for `CC(C)(CN1C(=O)c2cccc3cccc(c23)C1=O)C[N+](C)(C)CCCCCC[N+](C)(C)CC(C)(C)CN1C(=O)c2cccc3cccc(c23)C1=O`
Ans. 1.17

Qu. Return IC50 measured with Trypanosoma brucei brucei given this molecule: `Cc1ccc2c(c1)C(=O)N(CCC[N+](C)(C)CCCCCC[N+](C)(C)CCCN1C(=O)c3cccc4cccc(c34)C1=O)C2=O`
Ans. 27.9

Qu. // lookup IC50 | system=Trypanosoma brucei brucei | key= `CC(C)(CN1C(=O)c2cccc3cc([N+](=O)[O-])cc(c23)C1=O)C[N+](C)(C)CCCCCC[N+](C)(C)CCCN1C(=O)c2ccccc2C1=O`
Ans. 22.9

Qu. Recorded IC50 for Cc1ccc(C(=O)Nc2ccc(S(=O)(=O)O)c3cc(S(=O)(=O)O)cc(S(=O)(=O)O)c23)cc1NC(=O)c1cccc(NC(=O)Nc2cccc(C(=O)Nc3cc(C(=O)Nc4ccc(S(=O)(=O)O)c5cc(S(=O)(=O)O)cc(S(=O)(=O)O)c45)ccc3C)c2)c1 [SURAMIN HEXASODIUM] with Trypanosoma brucei brucei, please?
Ans. 0.3

meta.source: ChEMBL document CHEMBL1146377
